The reported numbers originate from patent US7842469B2.

Reported Serum τ1/2 (h) mouse values follow for various molecules
- Assay Procedure: Serum stability in mouse serum at 37° C.
- Assay type: in vitro ADME
- Study Conditions: mouse serum, 37° C., mono-exponential fit
Observed Property: Serum τ1/2 (h) mouse

* C124A/F199M: RLuc mutant C124A/F199M (protein) MASKVYDPEQRKRMITGPQWWARCKQMNVLDSFINYYDSEKHAENAVIFLHGNAASSYLWRHVVPHIEPVARCIIPDLIGMGKSGKSGNGSYRLLDHYKYLTAWFELLNLPKKIIFVGHDWGAALAFHYSYEHQDKIKAIVHAESVVDVIESWDEWPDIEEDIALIKSEEGEKMVLENNFFVETMLPSKIMRKLEPEEMAAYLEPFKEKGEVRRPTLSWPREIPLVKGGKPDVVQIVRNYNAYLRASDDLPKMFIESDPGFFSNAIVEGAKKFPNTEFVKVKGLHFSQEDAPDEMGKYIKSFVERVLKNEQ | 6.7
* C124A/M295I: RLuc mutant C124A/M295I (protein) MASKVYDPEQRKRMITGPQWWARCKQMNVLDSFINYYDSEKHAENAVIFLHGNAASSYLWRHVVPHIEPVARCIIPDLIGMGKSGKSGNGSYRLLDHYKYLTAWFELLNLPKKIIFVGHDWGAALAFHYSYEHQDKIKAIVHAESVVDVIESWDEWPDIEEDIALIKSEEGEKMVLENNFFVETMLPSKIMRKLEPEEFAAYLEPFKEKGEVRRPTLSWPREIPLVKGGKPDVVQIVRNYNAYLRASDDLPKMFIESDPGFFSNAIVEGAKKFPNTEFVKVKGLHFSQEDAPDEIGKYIKSFVERVLKNEQ | 5.0
